FYI, the data here is from the supplement of paper PMC6555819.

Tested on: THRa homodimer (NR concentration 90 nM)
Experiment: PBM binding z-score (relative to random genomic background probes); higher = stronger binding; sequences stand for … in GC…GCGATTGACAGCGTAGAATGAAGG
attribute-measured: PBM binding z-score

Sample records with PBM binding z-score:
sequence-record	result
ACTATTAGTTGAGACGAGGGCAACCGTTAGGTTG	0.14
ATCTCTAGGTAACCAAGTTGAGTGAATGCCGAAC	0.635
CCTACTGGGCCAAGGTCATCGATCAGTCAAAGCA	2.69
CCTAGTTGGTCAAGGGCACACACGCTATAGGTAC	0.605
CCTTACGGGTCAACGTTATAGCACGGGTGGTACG	-0.182
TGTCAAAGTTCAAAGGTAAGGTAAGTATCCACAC	0.924

Need PBM binding z-score for each of these sequences.
1. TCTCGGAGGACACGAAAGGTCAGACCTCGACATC
2. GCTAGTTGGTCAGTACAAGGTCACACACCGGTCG
3. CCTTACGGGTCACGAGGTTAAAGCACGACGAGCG
4. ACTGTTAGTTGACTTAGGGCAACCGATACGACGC
5. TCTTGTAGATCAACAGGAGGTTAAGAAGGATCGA
6. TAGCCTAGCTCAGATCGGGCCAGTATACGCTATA
7. AGAATGAAGTTATACGTAGATCAGGGAAGAAAGT
8. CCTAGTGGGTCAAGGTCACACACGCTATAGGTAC

// result
1: 1.55; 2: 4; 3: 0.843; 4: 0.731; 5: -0.619; 6: -0.99; 7: -0.66; 8: 3.74

Need PBM binding z-score for each of these sequences.
1. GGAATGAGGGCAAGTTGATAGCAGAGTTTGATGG
2. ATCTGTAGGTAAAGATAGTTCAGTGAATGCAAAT

// result
[1.02, -0.0674]

Need PBM binding z-score for each of these sequences.
1. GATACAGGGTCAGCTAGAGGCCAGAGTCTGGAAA
2. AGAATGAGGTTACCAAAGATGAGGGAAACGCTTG
3. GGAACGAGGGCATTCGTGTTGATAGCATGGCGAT
4. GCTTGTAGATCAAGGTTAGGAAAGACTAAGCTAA
5. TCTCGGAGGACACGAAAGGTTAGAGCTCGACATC

// result
1. 0.144
2. 0.977
3. -0.391
4. -0.327
5. 0.435
